Data origin: the supplement of paper PMC8671470

This section presents molecules with their documented cell viability values.
system: ML-2; test: cell viability (% survival relative to DMSO control, bortezomib = 0%); higher = less cytotoxic; conditions: 10 nM; 72 h
Structures can show the parent of a compound that is named as a salt.

{"molecule": "Oc1ccc(Nc2nc(-c3ccc(Cl)cc3)cs2)cc1", "cell viability, %": 97.2}
{"molecule": "C=C(C=NNC(=N)N)NNC(=N)N", "cell viability, %": 104}
{"molecule": "COc1ccc2c(C(=S)N(C)CC(=O)O)cccc2c1C(F)(F)F", "cell viability, %": 99}
{"molecule": "NC(=O)c1cccc(-c2cccc(OC(=O)NC3CCCCC3)c2)c1", "cell viability, %": 94.2}
{"molecule": "CCCc1cc(-c2nc(-c3ccc(C)cc3)cs2)ccn1", "cell viability, %": 101}
{"molecule": "COC(=O)[C@]12CCC(C)(C)C[C@H]1[C@H]1C(=O)C=C3[C@@]4(C)C=C(C#N)C(=O)C(C)(C)[C@@H]4CC[C@@]3(C)[C@]1(C)CC2", "cell viability, %": 103}
{"molecule": "Cc1cc(CS(=O)(=O)c2ccccc2)cc(OCc2ccc(CN3CCC[C@@H]3CO)cc2)c1 [PF-543 hydrochloride]", "cell viability, %": 97.3}
{"molecule": "O=c1cc(-c2ccccc2)oc2cc(O)c(O)c(O)c12", "cell viability, %": 93.2}
{"molecule": "CC[C@H](C)C(=O)O[C@H]1C[C@@H](C)C=C2C=C[C@H](C)[C@H](CC[C@@H]3C[C@@H](O)CC(=O)O3)[C@H]21", "cell viability, %": 105}

* * *

Readings of area under dose-response curve for the listed molecules
test system: HL-60; assay: area under dose-response curve (viability, 1 nM-10 uM) (fraction (0-1)); higher = more sensitive; conditions: 72 h; co-treatment: pictilisib 100 nM
quantityName: area under dose-response curve

{"molecule": "O=C(O)CCCCC(CCSCc1ccccc1)SCc1ccccc1 (centres undefined) [CPI-613]", "experimentalResult": "< 0.0301"}
{"molecule": "Cc1ccccc1C(C(=O)NC1CCCCC1)N(C(=O)Cn1ccnc1C)c1cccc(F)c1 (centres undefined) [AGI-5198]", "experimentalResult": "< 0.0301"}
{"molecule": "Nc1nc(Cl)nc2c1ncn2[C@H]1C[C@H](O)[C@@H](CO)O1 [Cladribine]", "experimentalResult": 0.515}
{"molecule": "NS(=O)(=O)c1ccc([N+](=O)[O-])cc1 [4-Nitrobenzenesulfonamide]", "experimentalResult": "< 0.0301"}
{"molecule": "CCCCCCCCCCC[C@@H](C[C@@H]1OC(=O)[C@H]1CCCCCC)OC(=O)[C@H](CC(C)C)NC=O [Orlistat]", "experimentalResult": "< 0.0301"}
{"molecule": "Nc1ccccc1C(=O)C[C@H](N)C(=O)O [L-Kynurenine]", "experimentalResult": "< 0.0301"}
{"molecule": "O=c1cc(-c2ccccc2)oc2cc(O)c(O)c(O)c12 [Baicalein]", "experimentalResult": "< 0.0301"}
{"molecule": "CC[C@@]1(O)C(=O)OCc2c1cc1n(c2=O)Cc2cc3c(CN(C)C)c(O)ccc3nc2-1 [Topotecan]", "experimentalResult": 0.597}
{"molecule": "Cc1c(-c2ccc(-c3ccccc3F)cc2)nc2ccc(F)cc2c1C(=O)O [Brequinar]", "experimentalResult": "< 0.0301"}
{"molecule": "Cc1cn([C@H]2C[C@H](O)[C@@H](COP(=O)(O)OP(=O)(O)O)O2)c(=O)[nH]c1=O [Thymidine diphosphate]", "experimentalResult": "< 0.0301"}
{"molecule": "O=C(O)c1cc(N=Nc2ccc(S(=O)(=O)Nc3ccccn3)cc2)ccc1O [Sulfasalazine]", "experimentalResult": "< 0.0301"}
{"molecule": "C=C(C=NNC(=N)N)NNC(=N)N [Mitoguazone]", "experimentalResult": 0.0324}
{"molecule": "CC(C)(C#N)c1cc(Cn2cncn2)cc(C(C)(C)C#N)c1 [Anastrozole]", "experimentalResult": "< 0.0301"}
{"molecule": "NCCCC(N)(C(=O)O)C(F)F (centres undefined) [Difluoromethylornithine]", "experimentalResult": "< 0.0301"}
{"molecule": "COc1ccc(S(=O)(=O)N2CCN(S(=O)(=O)c3ccc4c(c3)OCCO4)CC2)cc1 [BML283]", "experimentalResult": 0.0571}
{"molecule": "O=c1oc2c(O)c(O)cc3c(=O)oc4c(O)c(O)cc1c4c23 [Benzoaric Acid]", "experimentalResult": 0.0302}
{"molecule": "Cn1cc(-c2ccncc2)c(-c2ccc(OCc3ccc4ccccc4n3)cc2)n1", "experimentalResult": 0.05}
{"molecule": "CC[C@H](C)C(=O)O[C@H]1C[C@@H](C)C=C2C=C[C@H](C)[C@H](CC[C@@H]3C[C@@H](O)CC(=O)O3)[C@H]21 [Lovastatin]", "experimentalResult": 0.0554}
{"molecule": "COC(=O)[C@]12CCC(C)(C)C[C@H]1[C@H]1C(=O)C=C3[C@@]4(C)C=C(C#N)C(=O)C(C)(C)[C@@H]4CC[C@@]3(C)[C@]1(C)CC2 [Bardoxolone methyl]", "experimentalResult": 0.144}
{"molecule": "CN(C)c1cc(NC(=O)CNC(C)(C)C)c(O)c2c1C[C@H]1C[C@H]3[C@H](N(C)C)C(=O)C(C(N)=O)C(=O)[C@@]3(O)C(=O)C1C2=O (some centres undefined) [Tigecycline]", "experimentalResult": "< 0.0301"}
{"molecule": "COc1ccc(-c2ccccc2)cc1NS(=O)(=O)c1cc(Cl)cc(Cl)c1O", "experimentalResult": "< 0.0301"}
{"molecule": "O=C1O/C(=C/Br)CCC1c1cccc2ccccc12 (centres undefined) [Bromoenol Lactone]", "experimentalResult": "< 0.0301"}
{"molecule": "COc1ccc2c(C(=S)N(C)CC(=O)O)cccc2c1C(F)(F)F [Tolrestat]", "experimentalResult": "< 0.0301"}
{"molecule": "O[C@H]1[C@H]2[C@H](O)CCCN2C[C@H]1O [Swainsonine]", "experimentalResult": "< 0.0301"}
